targetOrTestSystem: human GLP-1 receptor (human, UniProt P43220 24-463)
assay: cell-based or functional assay
Bridge positions count the residues as written; N and C are the ends. Square brackets hold non-standard residues; d marks the D form. Ends that are not written are not given here. * marks the point of attachment. Acetyl(2-(4-imidazolyl)) = O=C(Cc1c[nH]cn1)*; Aib = CC(C)(N)C(=O)O
For each entry below, report its In vitro activity compared to native-type peptide (%), vs GLP-1 value.
Numbers only, in %.

// solved cases for In vitro activity compared to native-type peptide (%), vs GLP-1 follow
H[Aib]QGTFTSDYSKYLDEKRQKEFVQWLLDTKC (bridge 16-20) [triple agonist of SEQ ID NO: 78]; 51
Y[Aib]QGTFTSDYSKYLDECAAKDFVQWLLDHHPSSGQPPPS (also: ring formation (underlined residues), positions not given here) [triple agonist of SEQ ID NO: 67]; 28.5
{Acetyl(2-(4-imidazolyl))}-[Aib]QGTFTSDKSKYLDERAAQDFVQWLLDGGPSSGAPPPS [triple agonist of SEQ ID NO: 62]; 5.2
Y[Aib]QGTFTSDYSKYLDECRAKEFVQWLKNGGPSSGAPPPS (bridge 16-20) [triple agonist of SEQ ID NO: 24]; 41.2

Let us examine a further case.
Qu. Entry Y[Aib]QGTFTSDCSKYLDERAAKDFVQWLLDHHPSSGQPPPS (bridge 16-20) [triple agonist of SEQ ID NO: 72] : reported In vitro activity compared to native-type peptide (%), vs GLP-1 = ?
Ans. 11.5
